I'd be grateful if you could share measured switch fluorescence ratio for these entries.
Tested on: ATP;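 further: ATP exposure 15 min at 22 °C before imaging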
Test: switch fluorescence ratio, 500 uM ATP over buffer (Cy3 cluster intensity, sum of 5 cycles each) (fold (ratio)); higher = stronger signal-on switching upon ATP binding; sequences stand for … in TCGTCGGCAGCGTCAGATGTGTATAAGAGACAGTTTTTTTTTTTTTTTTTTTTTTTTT…TC
Conditions: aptamer strand: ATP DNA aptamer (quencher-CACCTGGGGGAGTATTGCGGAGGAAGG + anchor), 100 nM annealed; ATP concentration: 500 uM
Numbers only.

Check out these entries, answers already filled in.
[[record]]
primary_sequence = "ATTTACATTT"
value_observed = 1.02

[[record]]
primary_sequence = "AAACTGTAAA"
value_observed = 1.08

[[record]]
primary_sequence = "ACTTTTGACT"
value_observed = 0.982

[[record]]
primary_sequence = "GTGTACGGGG"
value_observed = 0.971

[[record]]
primary_sequence = "GATTGTACGA"
value_observed = 1.01

[[record]]
primary_sequence = "GGGTATTCTG"
value_observed = 0.98

[[record]]
primary_sequence = "CAATAAAGGT"
value_observed = 1.08

[[record]]
primary_sequence = "AAACGTTAGC"
value_observed = 1.03


# return switch fluorescence ratio for each item in the list
1. TTGTTTTTGG
2. GTCCGGGGGC

Return:
1: 0.987; 2: 1.13

====

System: ATP;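 further: ATP exposure 15 min at 22 °C before imaging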
Experiment: switch fluorescence ratio, 500 uM ATP over buffer (Cy3 cluster intensity, sum of 5 cycles each) (fold (ratio)); higher = stronger signal-on switching upon ATP binding; sequences stand for … in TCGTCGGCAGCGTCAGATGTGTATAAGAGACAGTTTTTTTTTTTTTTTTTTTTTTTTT…TC
Conditions: aptamer strand: ATP DNA aptamer (quencher-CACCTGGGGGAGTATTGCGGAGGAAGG + anchor), 100 nM annealed; ATP concentration: 500 uM
Outcome: 1 for switch fluorescence ratio of at least 1; -1 for anything lower.

[[record]]
primary_sequence = "CGGTATACTG"
cat = 1

[[record]]
primary_sequence = "GGCGGGATTG"
cat = -1

[[record]]
primary_sequence = "TCCGTAGTGT"
cat = 1


Enquiry: Kindly determine if switch fluorescence ratio recorded for "AATGCCTTTT" is above or exactly 1.
Return: 1

Enquiry: Please tell me: is the sequence "TCTCTGTGTT" at or over 1 in terms of switch fluorescence ratio?
Return: 1

Enquiry: Kindly determine if switch fluorescence ratio recorded for "CACTTTCACA" is above or exactly 1.
Return: 1

Enquiry: Given the entry "TACCGTATTT" , answer whether its switch fluorescence ratio meets or surpasses 1.
Return: 1

Enquiry: For this sequence, is measured switch fluorescence ratio 1 or higher? "TTTTTGTCAC"
Return: 1

Enquiry: Hello, I need to know if "TATACGGTTA" has measured switch fluorescence ratio not below 1. Thanks!
Return: 1

Enquiry: Confirm if switch fluorescence ratio reported for the sequence "TTTCGCATTT" is 1 or above.
Return: 1

Enquiry: Check this sequence for switch fluorescence ratio at or above 1: "GCGGACCCTC"
Return: 1

Enquiry: Assess whether reported switch fluorescence ratio for "AACCTGTCGC" sits at 1 or higher.
Return: 1

Enquiry: Would you say "CGCGGTGTGG" shows switch fluorescence ratio at minimum 1?
Return: 1

Enquiry: Is the recorded value of switch fluorescence ratio equal to or greater than 1 for this sequence? "TGCGCTATGT"
Return: 1

Enquiry: Reported switch fluorescence ratio reaches at least 1 for "GAAAGCGCGT" ?
Return: -1

Enquiry: Identify whether the reported switch fluorescence ratio of the following sequence is 1 or greater: "ATCGTTTAAT"
Return: -1
